Assay: molar enthalpy of vaporization or sublimation
Conditions: 298.15 K; Liquid; calvet microcalorimetry
Listing: molar enthalpy of selected compounds

structure smiles	unit string	molar enthalpy
Cc1ccsc1C=O	kcal/mol	13.8
O=Cc1ccsc1	kcal/mol	12.6
CCc1ccc(C=O)s1	kcal/mol	14.9
O=Cc1cccs1	kcal/mol	13.1
Cc1ccc(C=O)s1	kcal/mol	13.4
